assayed target: human SPR (Homo sapiens (Human), UniProt P35270)
Sequence (P35270 whole entry): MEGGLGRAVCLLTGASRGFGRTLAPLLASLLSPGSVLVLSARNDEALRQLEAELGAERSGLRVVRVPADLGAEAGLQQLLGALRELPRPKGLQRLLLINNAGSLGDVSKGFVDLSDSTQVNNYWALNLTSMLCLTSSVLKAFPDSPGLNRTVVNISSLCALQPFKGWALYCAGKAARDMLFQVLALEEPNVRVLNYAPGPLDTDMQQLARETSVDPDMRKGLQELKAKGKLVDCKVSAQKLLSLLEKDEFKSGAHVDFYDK
test protocol: Evaluation Example 2: Measurement of human SPR inhibitory activity (seven concentrations, sepiapterin absorbance at 420 nm)
Assay type: biochemical
protocol conditions: Evaluation Example 2, seven concentrations 0.14 nM to 100 nM, 240 minutes at room temperature, read-out: IC50
property: pIC50
When answering, recall that pIC50 equals minus log10 of the concentration in mol/L, and write that number alone.

                                   compound                            assayed_target  property  value
0  CC(C)(C)Cn1c(=O)c(C(=O)NC2CC2)c(O)n2nc(Nc3cnc(C(F)F)cn3)cc12 [Synthesis Example 337]  human SPR (Homo sapiens (Human), UniProt P35270)     pIC50   8.83

Endpoint output: pIC50 of CC(C)Cn1c(=O)c(C(=O)NC2CC2)c(O)n2ncc(C(=O)NCC3CC(F)(F)C3)c12 [Synthesis Example 222] . Value? 9.10

Endpoint output: pIC50 of CC(C)(C)Cn1c(=O)c(C(=O)NC2CC2)c(O)n2nc(Nc3ncco3)cc12 [Synthesis Example 361] . Value? 8.85

Endpoint output: pIC50 of COC[C@H]1COCCN1C(=O)/C=C/c1cnn2c(O)c(C(=O)NC3CC3)c(=O)n(CC3(F)CC3)c12 [Synthesis Example 382] . Value? 9.06

* * *

Collected pIC50 values appear next to each entry.
assayed target: UniProtKB P35270
test protocol: Evaluation Example 2: Measurement of human SPR inhibitory activity (seven concentrations, sepiapterin absorbance at 420 nm)
Format: biochemical
protocol conditions: Evaluation Example 2, seven concentrations 0.14 nM to 100 nM, 240 minutes at room temperature, read-out: IC50
Structures can show the parent of a compound that is named as a salt.
When answering, recall that pIC50 equals minus log10 of the concentration in mol/L, and write that number alone.

Example entries begin here.
                                   molecule  value
0  CC(C)Cn1c(=O)c(C(=O)NC2CC2)c(O)n2nc(N)c(/C=C/C(=O)N3CCC(F)(F)CC3)c12 [Synthesis Example 414, hydrochloride]   9.15
1  CC(C)Cn1c(=O)c(C(=O)NC2CC2)c(O)n2ncc(/C=C/C(=O)N(C)CCC#N)c12   9.14
2  CNc1nn2c(O)c(C(=O)NC3CC3)c(=O)n(CC(C)C)c2c1/C=C/C(=O)N1CC2CCC(C1)O2 [Synthesis Example 431]   9.09

Endpoint output: pIC50 of `CC(C)Cn1c(=O)c(C(=O)NC2CC2)c(O)n2ncc(/C=C/C(=O)N3CCCCCO3)c12` . Value? 9.01

* * *

Collected pIC50 values appear next to each entry.
assayed target: human SPR (Homo sapiens (Human), UniProt P35270)
test protocol: Evaluation Example 2: Measurement of human SPR inhibitory activity (seven concentrations, sepiapterin absorbance at 420 nm)
Assay type: biochemical
protocol conditions: Evaluation Example 2, seven concentrations 0.14 nM to 100 nM, 240 minutes at room temperature, read-out: IC50
When answering, recall that pIC50 equals minus log10 of the concentration in mol/L, and write that number alone.

>>> df
                                   molecule                            assayed_target  value
0  CC(C)(C)Cn1c(=O)c(C(=O)NC2CC2)c(O)n2nc(Nc3cnccn3)cc12 [Synthesis Example 13]  human SPR (Homo sapiens (Human), UniProt P35270)   8.84
1  CC(C)Cn1c(=O)c(C(=O)NC2CC2)c(O)n2ncc(/C=C/C(=O)N3CCC[C@H]3C)c12 [compound 536]  human SPR (Homo sapiens (Human), UniProt P35270)   9.04
2  CC(C)(C)Cn1c(=O)c(C(=O)NC2CC2)c(O)n2nc(-c3cccnc3F)cc12 [Synthesis Example 283]  human SPR (Homo sapiens (Human), UniProt P35270)   8.63
3  CC(C)(C)Cn1c(=O)c(C(=O)NC2CC2)c(O)n2nc(Nc3cncc(C(N)=O)n3)cc12 [Synthesis Example 345]  human SPR (Homo sapiens (Human), UniProt P35270)   9.04
4  Cc1nn2c(O)c(C(=O)NC3CC3)c(=O)n(CC(C)C)c2c1/C=C/C(=O)N1CCCC12CCCN(C)C2 (stereo not shown) [Synthesis Example 662]  human SPR (Homo sapiens (Human), UniProt P35270)   8.97

Endpoint output: pIC50 of CC(C)Cn1c(=O)c(C(=O)NC2CC2)c(O)n2ncc(C(=O)N[C@@H](C)c3ccccn3)c12 [Synthesis Example 218] . Value? 9.05

Endpoint output: pIC50 of CC(C)Cn1c(=O)c(C(=O)NC2CC2)c(O)n2ncc(/C=C/C(=O)N(C3CC3)C3CC3)c12 [compound 515] . Value? 9.08

Where these numbers come from: patent US20240092784A1
